Recorded values, source the supplement of paper PMC6555819.

Provide the recorded PBM binding z-score for the entries that follow.
tested on: RXRa DBDmut IVT, anti-RXR (DBD mutation: RXRa K156A/R161A, NR concentration 90 nM); test: PBM binding z-score (relative to random genomic background probes); higher = stronger binding; sequences stand for … in GC…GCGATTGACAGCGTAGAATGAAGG
Give bare numbers.

seq_string=TTACCAAGGTGAAAGGTCCTTGATGCACGCCTTG system="RXRa DBDmut IVT, anti-RXR (DBD mutation: RXRa K156A/R161A, NR concentration 90 nM)" reported_endpoint="PBM binding z-score" result_value=-0.243
seq_string=CATACAGGGTCAGCCAGGCCAGAGTAGGGACGGC system="RXRa DBDmut IVT, anti-RXR (DBD mutation: RXRa K156A/R161A, NR concentration 90 nM)" reported_endpoint="PBM binding z-score" result_value=1.4
seq_string=CGAACGAGGTCAAGGACAGTGAATCTCCGCACGC system="RXRa DBDmut IVT, anti-RXR (DBD mutation: RXRa K156A/R161A, NR concentration 90 nM)" reported_endpoint="PBM binding z-score" result_value=4.23

Count: 2. Required value per item: PBM binding z-score.
1. GGAACGAGGGCATTCGAGTTGTTAGCATGGCGAT
2. GATTGTAGATCAAGGTTAAGAAAGACTAAGCTAA

1. 2.89
2. -0.224

Form field: reported PBM binding z-score of "CGTCCAAGGTCAGCAGCTCAGTGAAAGCGACGTG"
2.64
